biological target: wt-IDH1 (Homo sapiens, UniProt O75874); experiment: cell-free wt-IDH1 enzyme inhibition; type: biochemical; details: read-out: EC50, blocks wt-IDH1
Sequence (O75874 whole entry): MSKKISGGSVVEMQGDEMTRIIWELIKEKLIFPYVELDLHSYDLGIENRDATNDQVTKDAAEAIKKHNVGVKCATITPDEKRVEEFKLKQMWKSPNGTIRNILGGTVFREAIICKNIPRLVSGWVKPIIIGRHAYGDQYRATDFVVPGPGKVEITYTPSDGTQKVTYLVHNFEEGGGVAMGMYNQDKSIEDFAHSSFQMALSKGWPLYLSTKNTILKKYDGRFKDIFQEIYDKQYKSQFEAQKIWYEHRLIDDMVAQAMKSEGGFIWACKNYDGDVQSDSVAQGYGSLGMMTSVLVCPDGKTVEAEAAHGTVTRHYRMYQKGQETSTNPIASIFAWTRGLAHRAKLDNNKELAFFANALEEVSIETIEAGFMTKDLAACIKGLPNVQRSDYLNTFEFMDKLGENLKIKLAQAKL
property_label: pEC50
One number for each entry, as −log10 of the molar value.

The reported value for C[C@@H]1C(=O)C(C#N)=C[C@]2(c3ccccc3)c3nc(Nc4ccccc4)ncc3CC[C@@H]12 [13i] in terms of pEC50 is 7.85

----------
molecular target: wt-IDH1 (Homo sapiens); experiment: cellular wt-IDH1 inhibition
Sequence (O75874 2-414 limits assumed): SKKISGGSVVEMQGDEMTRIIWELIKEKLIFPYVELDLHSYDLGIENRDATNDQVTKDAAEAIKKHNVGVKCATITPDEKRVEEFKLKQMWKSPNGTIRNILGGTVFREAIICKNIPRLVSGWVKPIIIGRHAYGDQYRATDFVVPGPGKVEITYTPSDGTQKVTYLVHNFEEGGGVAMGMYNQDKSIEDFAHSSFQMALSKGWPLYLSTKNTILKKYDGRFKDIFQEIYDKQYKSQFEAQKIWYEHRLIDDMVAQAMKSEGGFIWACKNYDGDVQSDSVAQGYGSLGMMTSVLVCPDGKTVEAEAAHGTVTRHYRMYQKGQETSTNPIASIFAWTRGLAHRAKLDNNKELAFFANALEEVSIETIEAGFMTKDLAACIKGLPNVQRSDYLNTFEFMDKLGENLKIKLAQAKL
pIC50: −log10 of the molar value.
property_label: pIC50

The reported value for C[C@@H]1C(=O)C(C#N)=C[C@]2(c3ccccc3)c3nc(Nc4ccccc4)ncc3CC[C@@H]12 [13i] in terms of pIC50 is 5.77 to 6.10
